# credit: ChEMBL document CHEMBL6078649

Test: Cytotoxicity against human Huh-7 cells harboring viral replicon/EGFP/Neo genes assessed as cell viability at 5 uM incubated for 24 hrs by Cell Titer Glo assay relative to control
Type: toxicity, cell-based
Conditions: read-out: Activity
ASSAY_METRIC: viability at 24 h, 5 µM (%)
Quick note: give the figure in %, leave out the unit.

Entry CC(=O)Oc1c(Cl)c(/C=C/C(=O)c2ccc(F)cc2)c(Cl)c(OC(C)=O)c1OC(C)=O , viability at 24 h, 5 µM reported as 111

Entry O=C(/C=C/c1c(Cl)c(O)c(O)c(O)c1Cl)c1ccc(C(F)(F)F)cc1 , viability at 24 h, 5 µM reported as 101

Entry O=C(/C=C/c1c(Cl)c(O)c(O)c(O)c1Cl)c1ccccc1 , viability at 24 h, 5 µM reported as 105

Entry O=C(/C=C/c1c(Cl)c(O)c(O)c(O)c1Cl)c1ccc(-c2ccc(F)cc2)cc1 , viability at 24 h, 5 µM reported as 86.5

Entry O=C(/C=C/c1c(Cl)c(O)c(O)c(O)c1Cl)c1ccco1 , viability at 24 h, 5 µM reported as 102
